System: S. aureus DSM 20231;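 also: first quartile when negative (synergy) and third quartile when positive (antagonism)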
Assay: Bliss interaction score (quartile over a dose matrix) (fitness difference); higher = more antagonism (negative = synergy)
# maps each entry to its Bliss interaction score
observed_property: Bliss interaction score

* CC[C@H]1OC(=O)[C@H](C)[C@@H](O[C@H]2C[C@@](C)(OC)[C@@H](O)[C@H](C)O2)[C@H](C)[C@@H](O[C@@H]2O[C@H](C)C[C@H](N(C)C)[C@H]2O)[C@](C)(O)C[C@@H](C)CN(C)[C@H](C)[C@@H](O)[C@]1(C)O [Azithromycin] + COc1cc(Cc2cnc(N)nc2N)cc(OC)c1OC [Trimethoprim] | 0.171
* CC[C@H]1OC(=O)[C@H](C)[C@@H](O[C@H]2C[C@@](C)(OC)[C@@H](O)[C@H](C)O2)[C@H](C)[C@@H](O[C@@H]2O[C@H](C)C[C@H](N(C)C)[C@H]2O)[C@](C)(O)C[C@@H](C)CN(C)[C@H](C)[C@@H](O)[C@]1(C)O [Azithromycin] + Oc1cc(Cl)ccc1Oc1ccc(Cl)cc1Cl [Triclosan] | -0.133

====

System: S. aureus DSM 20231;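 also: first quartile when negative (synergy) and third quartile when positive (antagonism)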
Test: Bliss interaction score (quartile over a dose matrix) (fitness difference); higher = more antagonism (negative = synergy)
# maps each entry to its Bliss interaction score
observed_property: Bliss interaction score

- CC1=C(C(=O)O)N2C(=O)[C@@H](NC(=O)[C@H](N)c3ccccc3)[C@H]2SC1 [Cephalexin] + COc1cccc2c1C(=O)c1c(O)c3c(c(O)c1C2=O)C[C@@](O)(C(=O)CO)C[C@@H]3O[C@H]1C[C@H](N)[C@H](O)[C@H](C)O1 [Doxorubicin]: 0.0343
- Cc1onc(-c2ccccc2)c1C(=O)N[C@@H]1C(=O)N2[C@@H]1SC(C)(C)[C@@H]2C(=O)O [Oxacillin] + CC[C@H]1OC(=O)[C@H](C)C(=O)[C@H](C)[C@@H](O[C@@H]2O[C@H](C)C[C@H](N(C)C)[C@H]2O)[C@](C)(OC)C[C@@H](C)C(=O)[C@H](C)[C@H]2N(CCCCn3cnc(-c4cccnc4)c3)C(=O)O[C@]12C [Telithromycin]: 0.0397
- CN(N=O)C(=O)N[C@@H](C=O)[C@@H](O)[C@H](O)[C@H](O)CO [Streptozotocin] + COc1cc(Cc2cnc(N)nc2N)cc(OC)c1OC [Trimethoprim]: -0.0675
- CN(C)CCCN1c2ccccc2Sc2ccc(Cl)cc21 [Chlorpromazine] + CN(C)C(=O)C(CCN1CCC(O)(c2ccc(Cl)cc2)CC1)(c1ccccc1)c1ccccc1 [Loperamide]: -0.311
- O=C(O)[C@H]1/C(=C/CO)O[C@@H]2CC(=O)N21 [Clavulanic] + COc1cc(Cc2cnc(N)nc2N)cc(OC)c1OC [Trimethoprim]: -0.186
- Cc1cc(NS(=O)(=O)c2ccc(N)cc2)no1 [Sulfamethoxazol] + CN[C@H](CC(C)C)C(=O)N[C@H]1C(=O)N[C@@H](CC(N)=O)C(=O)N[C@H]2C(=O)N[C@H]3C(=O)N[C@H](C(=O)N[C@H](C(=O)O)c4cc(O)cc(O)c4-c4cc3ccc4O)[C@H](O)c3ccc(c(Cl)c3)Oc3cc2cc(c3O[C@@H]2O[C@H](CO)[C@@H](O)[C@H](O)[C@H]2O[C@H]2C[C@](C)(N)[C@H](O)[C@H](C)O2)Oc2ccc(cc2Cl)[C@H]1O: 0.0457
- CC1=C(C(=O)O)N2C(=O)[C@@H](NC(=O)[C@H](N)c3ccccc3)[C@H]2SC1 [Cephalexin] + C[C@@H]1O[C@@H]1P(=O)(O)O [Fosfomycin]: 0.038
- CC1=C(C(=O)O)N2C(=O)[C@@H](NC(=O)[C@H](N)c3ccccc3)[C@H]2SC1 [Cephalexin] + N[C@@H]1CONC1=O [CycloserineD]: 0.0763
- CC1=C(C(=O)O)N2C(=O)[C@@H](NC(=O)[C@H](N)c3ccccc3)[C@H]2SC1 [Cephalexin] + COc1c(N2C[C@@H]3CCCN[C@@H]3C2)c(F)cc2c(=O)c(C(=O)O)cn(C3CC3)c12 [Moxifloxacin]: -0.0585
- CC[C@H]1OC(=O)[C@H](C)[C@@H](O[C@H]2C[C@@](C)(OC)[C@@H](O)[C@H](C)O2)[C@H](C)[C@@H](O[C@@H]2O[C@H](C)C[C@H](N(C)C)[C@H]2O)[C@](C)(O)C[C@@H](C)CN(C)[C@H](C)[C@@H](O)[C@]1(C)O [Azithromycin] + CO/N=C(\C(=O)N[C@@H]1C(=O)N2C(C(=O)O)=C(COC(C)=O)CS[C@H]12)c1csc(N)n1 [Cefotaxime]: 0.0492
- O=C(O)[C@H]1/C(=C/CO)O[C@@H]2CC(=O)N21 [Clavulanic] + COc1cccc2c1C(=O)c1c(O)c3c(c(O)c1C2=O)C[C@@](O)(C(=O)CO)C[C@@H]3O[C@H]1C[C@H](N)[C@H](O)[C@H](C)O1 [Doxorubicin]: 0.0451
- CC1=C(C(=O)O)N2C(=O)[C@@H](NC(=O)[C@H](N)c3ccccc3)[C@H]2SC1 [Cephalexin] + Clc1ccc(COC(Cn2ccnc2)c2ccc(Cl)cc2Cl)c(Cl)c1 [Miconazole]: 0.0471
- O=C(O)[C@H]1/C(=C/CO)O[C@@H]2CC(=O)N21 [Clavulanic] + CC[C@H]1OC(=O)[C@H](C)C(=O)[C@H](C)[C@@H](O[C@@H]2O[C@H](C)C[C@H](N(C)C)[C@H]2O)[C@](C)(OC)C[C@@H](C)C(=O)[C@H](C)[C@H]2N(CCCCn3cnc(-c4cccnc4)c3)C(=O)O[C@]12C [Telithromycin]: -0.0742
- O=C(O)[C@H]1/C(=C/CO)O[C@@H]2CC(=O)N21 [Clavulanic] + CC1=C\[C@@H](O)CC(=O)Cc2nc(co2)C(=O)N2CCC=C2C(=O)O[C@H](C(C)C)[C@H](C)/C=C/C(=O)NC\C=C\1 [Virginiamycin M1]: 0.0872
- c1ccc2c(CC3=NCCN3)cccc2c1 [Naphazoline] + COc1cc(Cc2cnc(N)nc2N)cc(OC)c1OC: 0.236
- CC1=C(C(=O)O)N2C(=O)[C@@H](NC(=O)[C@H](N)c3ccccc3)[C@H]2SC1 [Cephalexin] + CO[C@@]12[C@H](COC(N)=O)C3=C(C(=O)C(C)=C(N)C3=O)N1C[C@@H]1N[C@@H]12 [MitomycinC]: 0.0608
